- Tgt: Sushi domains (SD1/2) protein of GABAB1a (GB1a)
- Sequence (Q9Z0U4 29-158): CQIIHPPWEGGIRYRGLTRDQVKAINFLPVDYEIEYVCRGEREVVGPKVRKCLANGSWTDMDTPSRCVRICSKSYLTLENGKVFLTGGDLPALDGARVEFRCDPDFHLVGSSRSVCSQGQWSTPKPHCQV
- Assay summary: FP competition vs TAMRA AJAP-1probe
Attribute measured: Ki (nM)
Numbers only; they are read as nM.

// known answers, use as guide
Give recorded Ki. Ac-PWAIVWGPTDSRED-NH2
417

Give recorded Ki. Ac-ETEFIAWGPTVSRED-NH2
148

Give recorded Ki. Ac-ETEFIAWYGPTGDED-NH2
195

Give recorded Ki. Ac-ETSFIAWGPTGDED-NH2
34

Give recorded Ki. Ac-NTEFIAWGPTGDED-NH2
62

Continuing:
Give recorded Ki. Ac-RRRRRRRREDDDWIDWYDSDDD-NH2 [R8-16]
107

Give recorded Ki. Ac-ETEFIAWHPTGDED-NH2
240
